Assay: yeast display, Sf9 membrane polyspecificity reagent, FACS + sequencing; frameworks hold sequencing errors
measuredEndpoint: polyreactivity (PSR sort gate)

monomerSequence: QVQLVESGGGLVQAGGSLRLSCAASGRTFRANAMGWYRQAPGKERELVAAITWDGGSTYYADSVKGRFTISRDNAKNTVYLQMNSLKPEDTAVYYCNTDPYLWGQGTQVTVSS
result: low polyreactivity
--
monomerSequence: QVQLVESGGGLVQAGGSLRLSCAASGRTFGGNAMGWYRQAPGKERELVAAINSDGGRTYYADSVKARFTISRDNAKNTVYLQMNSLKPEDTAVYYCNRAYRKSYTGYGYDYWGQGTQVTVSS
result: high polyreactivity
--
monomerSequence: QVQLVESWGGLVQAGGSLRLSCAASGSTSVYYAMGWYRQTPGKERELVDAITWDDGSTSYADSVKGRFTISRDNAKNTVYLQMNSLKPEDTEVYYCAKDYEYLGAFNYWGQGTQVTGSS
result: low polyreactivity
--
monomerSequence: QVQLVESGGGLVQAGGSLRLSCAASGFIFKRYAMGWNRQAPGKVRELVAAITSRGGSTYYADSVKGRFTISRDNAKNTVYLQMNSLKPEDTAVYYCNAGTSAGSYDYWGQGTQVTVSS
result: high polyreactivity
--
monomerSequence: QVQLVESGGGLVQAGGSLRLSCAASGSTFHLYAMGWYRKAPGKEREFVAAIRGRGGNTYADSVKGRFTISRDNAKNTVYLQMNSLKPEDTAVYYCAAPLLRDLRSPYSYNYWGQGTQVTVSS
result: low polyreactivity
--
monomerSequence: QVQLVESGGGLVQAGGSLRLSCAASGSTLSFKAMGWYRQAPGKERELVAGITYSGGSTYYADSVKGRFTISRDNAKNTVYLQMNSLKPEDTAVYYCNKASGVYYGHLDYWGQGTQVTVSS
result: low polyreactivity
--
monomerSequence: QVQLVESGGGLVQAGGSLRLSCAASGRTFHNYAMGWYRQAPGKEREFVAVITGSGGRTYYADSVKGRFTISRDNAKNTVYLQMNSLKPEDTAVYYCNRVSRYYLYDYWGQGTQVTVSS
result: high polyreactivity
--
monomerSequence: QVQLVESGGGLVQAGGSLRLSCAASGRTFTYNVLGWYRVAPGKERELVAAITSGGSNYADSVKGRFTISRDNAKNTVYLQLNSLKPEDTAGYYCATDYYDDVTIGYDYWGPGTQVTVSS
result: low polyreactivity
--
monomerSequence: QVQLVESVGGLVQAGGSLRLSCAASGSTFAGYAMGWYRQAPGKERELVATITYSGGSTYYADSVKGRFTISRDNAKNTVYLQMNSLKPEDTEVYYCAKKASYWWGYEYWGQGTQVTVSS
result: low polyreactivity
--
monomerSequence: QVQLVESGGGLVQAGGSLRLSCAASGRIFPYYAMGWYRQAPGKERELVATISGGGSTDYADSVKGRFTISRDNAKNTVYLQMNSLKPEDTAVYYFAKKLRGWHTIITDYDYWGQGTQVTVSS
result: low polyreactivity
--
monomerSequence: QVQHVESGGGLVQAGGSLRLSCAASGSTIEDYAMGWYRQAPGKERELVAAISFSGARTYYADSVKGRFTISRDKAKNTVYLQMNSLKPEDTAVYYCNAVSGIVQRYDYWGQGTQVTVSS
result: high polyreactivity
